# IC50 annotations
Tested on: Plasmodium falciparum
Test: Antiplasmodial activity against asexual erythrocyte stage of chloroquine-resistant Plasmodium falciparum W2 infected in human red blood cells after 48 hrs by lactate dehydrogenase assay
Assay type: functional, organism-based
Conditions: W2, 48 h

Here is how some compounds turned out for IC50.
Ask: API: value(readout=IC50, system=Plasmodium falciparum) for record `CCCCCC/C=C\CCCCCCC[C@@H]1C[C@@]2(O)CC(=O)C=C[C@@]2(O)O1`
Reply: 0.21 to 0.55 µg/mL

Ask: Would you kindly repeat that for C[C@@H]1CC[C@H]2[C@@H](C)C(=O)O[C@@H]3O[C@@]4(C)CC[C@@H]1[C@]32OO4 [ARTEMISININ] ?
Reply: 0.01 to 0.035 µg/mL

Ask: Would you kindly repeat that for `CCCCCC/C=C\CCCCCCCC(=O)C[C@@]1(O)C=CC(=O)[C@@H](O)C1` ?
Reply: 0.48 to 1.27 µg/mL

Now examine the next entry.
Ask: API: value(readout=IC50, system=Plasmodium falciparum) for record `CCCCCCCCCCCCCCC[C@@H]1C[C@@]2(O)CC(=O)C=C[C@@]2(O)O1`
Reply: 0.37 to 0.97 µg/mL

====

Assay: Toxicity in 48 hrs post fertilized zebra fish embryo assessed as embryo mortality at 2 ug/ml replaced once daily for 3 days
Type: organism-based, Danio rerio
Conditions: zebrafish, in vivo; read-out: Activity
Readout kind: mortality at 72 h, 2 ug/ml (%)
Quick note: give the figure in %, leave out the unit.

Ask: Which value of mortality at 72 h, 2 ug/ml has been reported for `CCCCCC/C=C\CCCCCCC[C@@H]1C[C@@]2(O)CC(=O)C=C[C@@]2(O)O1` in the records?
Reply: 60

The measured values listed here are drawn from ChEMBL document CHEMBL4190199.
